Tested on: Escherichia coli
Assay procedure: Antimicrobial activity against ampD deficient Escherichia coli transfected with pCF1 in medium containing EtbuPUG by serial dilution method
Type: functional
# maps each entry to its MIC

Observe how each entry below is paired with its result.
CO/N=C(\C(=O)N[C@@H]1C(=O)N2C(C(=O)O)=C(CSc3nc(=O)c(O)nn3C)CS[C@H]12)c1csc(N)n1 [CEFTRIAXONE]: 32 µg/mL
CO[C@@]1(NC(=O)Cc2cccs2)C(=O)N2C(C(=O)O)=C(COC(N)=O)CS[C@@H]21 [CEFOXITIN]: 256 µg/mL
CC(C)(O/N=C(\C(=O)N[C@@H]1C(=O)N2C(C(=O)[O-])=C(C[n+]3ccccc3)CS[C@H]12)c1csc(N)n1)C(=O)O [CEFTAZIDIME]: 64 µg/mL

Item CO/N=C(\C(=O)N[C@@H]1C(=O)N2C(C(=O)O)=C(COC(C)=O)CS[C@H]12)c1csc(N)n1 [CEFOTAXIME] was tested on Escherichia coli; the reported MIC is 64 µg/mL

----------
Assay procedure: Ratio of human 84 O-GLcNAcase to Vibrio cholerae NagZ
# maps each entry to its Selectivity ratio
Please give only the number in your answer, with no unit.

Observe how each entry below is paired with its result.
CC(C)C(=O)N[C@H]1/C(=N/OC(=O)Nc2ccccc2)O[C@H](CO)[C@@H](O)[C@@H]1O: 18
CC(C)CC(=O)N[C@H]1/C(=N/OC(=O)Nc2ccccc2)O[C@H](CO)[C@@H](O)[C@@H]1O: 13
CC(=O)N[C@H]1c2nc(CC(=O)O)cn2[C@H](CO)[C@@H](O)[C@@H]1O: 0.03
CCCCCC(=O)N[C@H]1/C(=N/OC(=O)Nc2ccccc2)O[C@H](CO)[C@@H](O)[C@@H]1O: 33
CCCCC(=O)N[C@H]1/C(=N/OC(=O)Nc2ccccc2)O[C@H](CO)[C@@H](O)[C@@H]1O: 121
CCC(CC)C(=O)N[C@H]1/C(=N/OC(=O)Nc2ccccc2)O[C@H](CO)[C@@H](O)[C@@H]1O: 109

Reported Selectivity ratio ( `CC(=O)N[C@H]1/C(=N/O)O[C@H](CO)[C@@H](O)[C@@H]1O` ) = 29

Reported Selectivity ratio ( `CCC(=O)N[C@H]1/C(=N/OC(=O)Nc2ccccc2)O[C@H](CO)[C@@H](O)[C@@H]1O` ) = 7.5
